protocol summary: Active ingredient stability in solvents (0,002 molar, HPLC)
Type: physicochemical
condition parameters: dimethylformamid (technisch), Dimethylformid (technisch), 70°C, Abbauzeit 7 min; read-out: Wirkstoffgehalt
readout: remaining at 7 min, 2000 µM (%)
All answers are understood in %, so give the number only.

Query: Could you share which remaining at 7 min, 2000 µM value was measured for CCOC(=O)Nc1cccc(OC(=O)Nc2ccc(F)c(Cl)c2)c1 ?
Response: 98.5

---

protocol summary: Stability of Phenmedipham in solvents, 24 h storage, HPLC
Assay type: physicochemical
condition parameters: isophoron, 50°C, 24 Std.; read-out: Restwirkstoff an Phenmedipham Wirkstoffgehalt
readout: remaining at 24 h (%)
Hi! Could you send only the number? It should be in %, unit omitted.

Query: remaining at 24 h for COC(=O)Nc1cccc(OC(=O)Nc2cccc(C)c2)c1 [Phenmedipham] ?
Response: 99.3

---

protocol summary: Active ingredient stability in solvents (0,002 molar, HPLC)
Assay type: physicochemical
condition parameters: n-methylpyrrolidon, N-Methylpyrrolidon (rein 0,05% H2O), 50°C, Abbauzeit 60 min; read-out: Wirkstoffgehalt
readout: remaining at 1 h, 2000 µM (%)
Record the value in %, omitting the unit from your answer.

Query: What value of remaining at 1 h, 2000 µM has been reported for the following compound? CCOC(=O)Nc1cccc(OC(=O)Nc2ccc(F)c(Cl)c2)c1 [Substanz 2]
Response: 52.8

---

protocol summary: Stability of Phenmedipham in solvents, 24 h storage, HPLC
Assay type: physicochemical
condition parameters: 2-äthylhexancarbonsäureamid, 2-Äthylhexancarbonsäureamid (Nr. 9 aus Tabelle 4), 70°C, 24 Std.; read-out: Restwirkstoff an Phenmedipham Wirkstoffgehalt
readout: remaining at 24 h (%)
The reply should be a number in %, with the unit left off.

Query: I would be grateful if you could share the reported remaining at 24 h for COC(=O)Nc1cccc(OC(=O)Nc2cccc(C)c2)c1 .
Response: 98

---

protocol summary: Active ingredient stability in solvents (0,002 molar, HPLC)
Assay type: physicochemical
condition parameters: dimethylformamid (technisch), Dimethylformid (technisch), 50°C, Abbauzeit 20 min; read-out: Wirkstoffgehalt
readout: remaining at 20 min, 2000 µM (%)
Kindly provide the numeric value in % only, without the unit symbol.

Query: What does the data say about its remaining at 20 min, 2000 µM? Entry: CCOC(=O)Nc1cccc(OC(=O)Nc2ccc(F)c(Cl)c2)c1
Response: 98.1

---

protocol summary: Active ingredient stability in solvents (0,002 molar, HPLC)
Format: physicochemical
condition parameters: n-methylpyrrolidon, N-Methylpyrrolidon (rein 0,05% H2O), 50°C, Abbauzeit 5 min; read-out: Wirkstoffgehalt
readout: remaining at 5 min, 2000 µM (%)
Just the number in %, nothing appended.

Query: For the compound CCOC(=O)Nc1cccc(OC(=O)Nc2ccc(F)c(Cl)c2)c1 , what remaining at 5 min, 2000 µM is on record?
Response: 92.3

---

protocol summary: Active ingredient stability in solvents (0,002 molar, HPLC)
Format: physicochemical
condition parameters: dimethylformamid (technisch), Dimethylformid (technisch), 70°C, Abbauzeit 63 min; read-out: Wirkstoffgehalt
readout: remaining at 1.05 h, 2000 µM (%)
Dear colleague, please return just the value in %, with no unit written.

Query: For the molecule CCOC(=O)Nc1cccc(OC(=O)Nc2ccc(F)c(Cl)c2)c1 , what remaining at 1.05 h, 2000 µM is on record?
Response: 57.4

---

protocol summary: Active ingredient stability in solvents (0,002 molar, HPLC)
Format: physicochemical
condition parameters: n-methylpyrrolidone, N-Methylpyrrolidon (rein 0,05% H2O), 30°C, Abbauzeit 30 min; read-out: Wirkstoffgehalt
readout: remaining at 0.5 h, 2000 µM (%)
Express the result in % but write the number alone.

Query: Would you mind telling me what remaining at 0.5 h, 2000 µM value was observed for CCOC(=O)Nc1cccc(OC(=O)Nc2ccc(F)c(Cl)c2)c1 [Substanz 2] ?
Response: 96.7

---

protocol summary: Active ingredient stability in solvents (0,002 molar, HPLC)
Assay type: physicochemical
condition parameters: dimethylformamid (technisch), Dimethylformid (technisch), 80°C, Abbauzeit 7 min; read-out: Wirkstoffgehalt
readout: remaining at 7 min, 2000 µM (%)
Give the number; % is assumed, so skip it.

Query: Requested read-out: remaining at 7 min, 2000 µM. Entry: CCOC(=O)Nc1cccc(OC(=O)Nc2ccc(F)c(Cl)c2)c1
Response: 85.4

---

protocol summary: Stability of Phenmedipham in solvents, 24 h storage, HPLC
Assay type: physicochemical
condition parameters: 2-äthylhexancarbonsäureamid, 2-Äthylhexancarbonsäureamid (Nr. 9 aus Tabelle 4), 50°C, 24 Std.; read-out: Restwirkstoff an Phenmedipham Wirkstoffgehalt
readout: remaining at 24 h
// return the numeric value with its unit appended

Query: I'd like to know its remaining at 24 h. The molecule in question is COC(=O)Nc1cccc(OC(=O)Nc2cccc(C)c2)c1
Response: 98.1%

---

protocol summary: Active ingredient stability in solvents (0,002 molar, HPLC)
Assay type: physicochemical
condition parameters: n-methylpyrrolidon, N-Methylpyrrolidon (rein 0,05% H2O), 50°C, Abbauzeit 20 min; read-out: Wirkstoffgehalt
readout: remaining at 20 min, 2000 µM (%)
Answer format: numeric, % implied, no suffix.

Query: Could you tell me which remaining at 20 min, 2000 µM is on file for CCOC(=O)Nc1cccc(OC(=O)Nc2ccc(F)c(Cl)c2)c1 ?
Response: 76.5

---

protocol summary: Stability of Phenmedipham in solvents, 24 h storage, HPLC
Assay type: physicochemical
condition parameters: n,n-diäthyl-3-methyl-benzolcarbonsäureamid, N,N-Diäthyl-3-methyl-benzolcarbonsäureamid (Nr. 11 Tabelle 4), 70°C, 24 Std.; read-out: Restwirkstoff an Phenmedipham Wirkstoffgehalt
readout: remaining at 24 h (%)
Numbers only; they are read as %.

Query: Request the reported remaining at 24 h associated with COC(=O)Nc1cccc(OC(=O)Nc2cccc(C)c2)c1
Response: 60

---

protocol summary: Active ingredient stability in solvents (0,002 molar, HPLC)
Type: physicochemical
condition parameters: dimethylformamid (technisch), Dimethylformid (technisch), 80°C, Abbauzeit 23 min; read-out: Wirkstoffgehalt
readout: remaining at 23 min, 2000 µM (%)
A number alone suffices; assume %.

Query: // remaining at 23 min, 2000 µM lookup, key: CCOC(=O)Nc1cccc(OC(=O)Nc2ccc(F)c(Cl)c2)c1
Response: 54.7
